For each record, write down the corresponding inhibition.
assay overview: Inhibition of amyloid beta (1 to 42) self aggregation at 20 uM after 48 hrs by thioflavin T fluorescence assay
State the answer as a number, implicitly in %.

Query block: Please look up its inhibition: `c1ccc2oc(-c3ccc(OCCCCNc4c5c(nc6ccccc46)CCCC5)cc3)nc2c1`
Result block: 33.2

Query block: Likewise for `c1ccc2oc(-c3ccc(OCCCCNc4c5c(nc6ccccc46)CCCC5)cc3)cc2c1` ?
Result block: 46.3

Query block: Then `c1ccc2sc(-c3ccc(OCCCCNc4c5c(nc6ccccc46)CCCC5)cc3)nc2c1` ?
Result block: 37.8

Query block: Now try `c1ccc2oc(-c3ccc(OCCCNc4c5c(nc6ccccc46)CCCC5)cc3)cc2c1` .
Result block: 62.8

Query block: Here is the next compound: `c1ccc2oc(-c3ccc(OCCCNc4c5c(nc6ccccc46)CCCC5)cc3)nc2c1`
Result block: 57.6

====

Would you mind telling me the reported pIC50 of each entry?
study target: UniProt P81908
Sequence (P81908 whole entry): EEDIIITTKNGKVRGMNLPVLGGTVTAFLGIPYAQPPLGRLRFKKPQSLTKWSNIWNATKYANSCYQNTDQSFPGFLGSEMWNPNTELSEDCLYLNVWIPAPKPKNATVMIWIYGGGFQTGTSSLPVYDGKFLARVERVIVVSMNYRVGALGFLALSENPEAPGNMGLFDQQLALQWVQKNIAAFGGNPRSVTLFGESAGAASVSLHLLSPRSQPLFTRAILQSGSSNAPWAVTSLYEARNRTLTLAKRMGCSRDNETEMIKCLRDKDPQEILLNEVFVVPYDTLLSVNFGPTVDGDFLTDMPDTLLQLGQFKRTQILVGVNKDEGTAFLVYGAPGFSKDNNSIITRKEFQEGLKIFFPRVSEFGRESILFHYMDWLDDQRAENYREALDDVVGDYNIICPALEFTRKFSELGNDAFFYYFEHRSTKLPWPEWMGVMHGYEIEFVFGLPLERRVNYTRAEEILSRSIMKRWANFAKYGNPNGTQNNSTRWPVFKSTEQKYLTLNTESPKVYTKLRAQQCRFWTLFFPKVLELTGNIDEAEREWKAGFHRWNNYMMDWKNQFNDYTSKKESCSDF
The meaning of pIC50 here: minus log10 of the concentration in molar units.

Query block: Tell me the measured pIC50 of `COc1ccc2cc3[n+](cc2c1OCCOc1ccc(-c2nc4ccccc4s2)cc1)CCc1cc2c(cc1-3)OCO2` , please.
Result block: 6.76

Query block: Okay, and `c1ccc2oc(-c3ccc(OCCCNc4c5c(nc6ccccc46)CCCC5)cc3)cc2c1` ?
Result block: 6.81

Query block: Also `COc1ccc2cc3[n+](cc2c1OCCCOc1ccc(-c2nc4ccccc4s2)cc1)CCc1cc2c(cc1-3)OCO2` , if possible.
Result block: 6.23

Query block: Now give it for `COc1ccc2cc3[n+](cc2c1OCCCOc1ccc(-c2cc4ccccc4[nH]2)cc1)CCc1cc2c(cc1-3)OCO2` too.
Result block: 6.15

Query block: Then what about the compound `c1ccc2sc(-c3ccc(OCCCCCCNc4c5c(nc6ccccc46)CCCC5)cc3)nc2c1` ?
Result block: 7.09

Query block: Same read-out for `COc1ccc2cc3[n+](cc2c1OCCCOc1ccc(-c2cc4ccccc4o2)cc1)CCc1cc2c(cc1-3)OCO2` ?
Result block: 6.00

Query block: What do you get for `c1ccc2sc(-c3ccc(OCCCNc4c5c(nc6ccccc46)CCCC5)cc3)nc2c1` ?
Result block: 6.91

Query block: Then this compound: `c1ccc2sc(-c3ccc(OCCCCNc4c5c(nc6ccccc46)CCCC5)cc3)nc2c1`
Result block: 6.73

Query block: Next record, please: `c1ccc2oc(-c3ccc(OCCCCNc4c5c(nc6ccccc46)CCCC5)cc3)cc2c1`
Result block: 6.62

Query block: Same question for `COc1ccc2cc3[n+](cc2c1OCCCNC(=O)c1cc2ccccc2o1)CCc1cc2c(cc1-3)OCO2` please.
Result block: 5.81

Query block: What do you get for `c1ccc2oc(-c3ccc(OCCCNc4c5c(nc6ccccc46)CCCC5)cc3)nc2c1` ?
Result block: 6.45

Query block: Next entry: `c1ccc2oc(-c3ccc(OCCCCNc4c5c(nc6ccccc46)CCCC5)cc3)nc2c1`
Result block: 6.68

Query block: Check `COc1ccc2cc3[n+](cc2c1OCCCNC(=O)c1cc2ccccc2[nH]1)CCc1cc2c(cc1-3)OCO2` too.
Result block: 5.66

Query block: Same read-out for `c1ccc2sc(-c3ccc(OCCCCCNc4c5c(nc6ccccc46)CCCC5)cc3)nc2c1` ?
Result block: 6.77

Query block: Please give the result for `COc1ccc2cc3[n+](cc2c1OCCCOc1ccc(-c2nc4ccccc4o2)cc1)CCc1cc2c(cc1-3)OCO2` too.
Result block: 6.19
